test: Acute toxicity, intravenous (once), ddY mice; type: in vivo; settings: mouse, in vivo, iv, formulated per Preparation Example
property.label: LD50

molecule: COC(=O)c1ccc(C(=O)Oc2c3cccc(O[C@@H]4O[C@H](C)[C@@H]5OC(C)(C)O[C@@H]5[C@H]4O[C@H]4O[C@H](C)[C@H](O)[C@H](OC)[C@H]4O)c3c3oc(=O)c4c(C)ccc5oc(=O)c2c3c54)cc1 [compound 207]
result: ≥ 80 mg/kg
//
molecule: CO[C@H]1[C@@H](O)[C@@H](C)O[C@H](O[C@H]2[C@H](Oc3cccc4c(OC(=O)c5ccc(Cl)cc5)c5c(=O)oc6ccc(C)c7c(=O)oc(c34)c5c67)O[C@H](C)[C@@H]3OC(C)(C)O[C@@H]32)[C@@H]1O [Compound No. 185]
result: ≥ 80 mg/kg
//
molecule: COC1C(O)C(C)OC(OC2C(Oc3cccc4c(OC(=O)C(NC(=O)OCc5ccccc5)C(C)C)c5c(=O)oc6ccc(C)c7c(=O)oc(c34)c5c67)OC(C)C3OC(c4ccccc4)OC32)C1O (stereo not shown) [compound 106]
result: ≥ 40 mg/kg

Next molecule, LD50 to be filled in.
Reported LD50, molecule COC1C(O)C(C)OC(OC2C(Oc3cccc4c(OC(=O)COC(=O)c5ccccc5)c5c(=O)oc6ccc(C)c7c(=O)oc(c34)c5c67)OC(C)C3OC(c4ccccc4)OC32)C1O (stereo not shown) [Compound No. 167] : ____
≥ 40 mg/kg

###

test: Acute toxicity, intravenous (once), ddY mice; assay type: in vivo; conditions: mouse, in vivo, formulated per Preparation Example
property.label: LD50

Consider the worked cases shown below.
molecule: C/C=C(\C)C(=O)Oc1c2cccc(OC3OC(C)C4OC(c5ccc(OC)cc5)OC4C3OC3OC(C)C(O)C(OC)C3O)c2c2oc(=O)c3c(C)ccc4oc(=O)c1c2c43 (stereo not shown)
property.label: LD50
result: ≥ 40 mg/kg
--
molecule: C/C=C(\C)C(=O)Oc1c2cccc(O[C@@H]3O[C@H](C)[C@@H]4OC(c5ccccc5)O[C@@H]4[C@H]3O[C@H]3O[C@H](C)[C@H](O)[C@H](OC)[C@H]3O)c2c2oc(=O)c3c(C)ccc4oc(=O)c1c2c43 (stereo partly shown)
property.label: LD50
result: ≥ 80 mg/kg
--
molecule: C=CCCC(=O)Oc1c2cccc(O[C@@H]3O[C@H](C)[C@@H]4OC(c5ccc(Cl)cc5Cl)O[C@@H]4[C@H]3O[C@H]3O[C@H](C)[C@H](O)[C@H](OC)[C@H]3O)c2c2oc(=O)c3c(C)ccc4oc(=O)c1c2c43 (stereo partly shown)
property.label: LD50
result: ≥ 80 mg/kg
--
molecule: CCC1O[C@H]2[C@@H](O1)[C@@H](C)O[C@@H](Oc1cccc3c(OC(=O)C(C)CC)c4c(=O)oc5ccc(C)c6c(=O)oc(c13)c4c56)[C@@H]2O[C@H]1O[C@H](C)[C@H](O)[C@H](OC)[C@H]1O (stereo partly shown)
property.label: LD50
result: ≥ 80 mg/kg

Reported LD50, molecule C/C=C/C(=O)Oc1c2cccc(OC3OC(C)C4OC5(CCCCC5)OC4C3OC3OC(C)C(O)C(OC)C3O)c2c2oc(=O)c3c(C)ccc4oc(=O)c1c2c43 (stereo not shown) : ____
≥ 80 mg/kg

Reported LD50, molecule CCCC(=O)Oc1c2cccc(O[C@@H]3O[C@H](C)[C@@H]4OC(c5ccccc5OC)O[C@@H]4[C@H]3O[C@H]3O[C@H](C)[C@H](O)[C@H](OC)[C@H]3O)c2c2oc(=O)c3c(C)ccc4oc(=O)c1c2c43 (stereo partly shown) : ____
≥ 40 mg/kg

Reported LD50, molecule C/C=C(\C)C(=O)Oc1c2cccc(OC3OC(C)C4OC(c5ccccc5)OC4C3OC3OC(C)C(O)C(OC)C3O)c2c2oc(=O)c3c(C)ccc4oc(=O)c1c2c43 (stereo not shown) : ____
≥ 40 mg/kg

###

tested on: ddY mice; assay: Acute toxicity, intravenous (once), ddY mice; type: in vivo; details: formulated per Preparation Example
Catalogue of LD50 values

Consider the worked cases shown below.
compound: COC1C(O)C(C)OC(OC2C(Oc3cccc4c(OC(=O)CC(C)NC(=O)C(F)(F)F)c5c(=O)oc6ccc(C)c7c(=O)oc(c34)c5c67)OC(C)C3OC(c4ccccc4)OC32)C1O (centres unmarked)
LD50: ≥ 60 mg/kg
//
compound: COC1C(O)C(C)OC(OC2C(Oc3cccc4c(OC(=O)CCNC(=O)C(F)(F)F)c5c(=O)oc6ccc(C)c7c(=O)oc(c34)c5c67)OC(C)C3OC(c4ccccc4)OC32)C1O (centres unmarked) [Compound No. 28]
LD50: ≥ 120 mg/kg
//
compound: CCCC(=O)Oc1c2cccc(OC3OC(C)C4OC(c5ccccc5)OC4C3OC3OC(C)C(O)C(OC)C3O)c2c2oc(=O)c3c(C)ccc4oc(=O)c1c2c43 (centres unmarked)
LD50: ≥ 80 mg/kg

Reported LD50, compound COC1C(O)C(C)OC(OC2C(Oc3cccc4c(OC(=O)CCNC(=O)C(F)(F)F)c5c(=O)oc6ccc(C)c7c(=O)oc(c34)c5c67)OC(C)C3OC(c4ccccc4)OC32)C1O (centres unmarked) [Compound No. 41] : ____
≥ 100 mg/kg

Reported LD50, compound C=CCCC(=O)Oc1c2cccc(O[C@@H]3O[C@H](C)[C@@H]4OC(c5ccccc5)O[C@@H]4[C@H]3O[C@H]3O[C@H](C)[C@H](O)[C@H](OC)[C@H]3O)c2c2oc(=O)c3c(C)ccc4oc(=O)c1c2c43 (some centres unmarked) : ____
≥ 80 mg/kg

###

System: ddY mice
Assay: Acute toxicity, intravenous (once), ddY mice
Assay type: in vivo
Conditions: formulated per Preparation Example
Source text: In Table 7 are shown acute toxicity values (LD50, mg/kg) in ddY mice in the case of intravenously administering (once) each of the compounds of this invention in the form of preparations shown in the Preparation Examples shown in Table 7.
property.label: LD50

Consider the worked cases shown below.
molecule: COC1C(O)C(C)OC(OC2C(Oc3cccc4c(OC(=O)C(C)CNC(=O)C(F)(F)F)c5c(=O)oc6ccc(C)c7c(=O)oc(c34)c5c67)OC(C)C3OC(c4cccc(F)c4)OC32)C1O (centres unmarked) [compound 68]
result: ≥ 80 mg/kg
//
molecule: COC1C(O)C(C)OC(OC2C(Oc3cccc4c(OC(=O)CN(C)C(=O)C(F)(F)F)c5c(=O)oc6ccc(C)c7c(=O)oc(c34)c5c67)OC(C)C3OC(c4ccccc4)OC32)C1O (centres unmarked)
result: ≥ 60 mg/kg
//
molecule: COC1C(O)C(C)OC(OC2C(Oc3cccc4c(OC(=O)CCNC=O)c5c(=O)oc6ccc(C)c7c(=O)oc(c34)c5c67)OC(C)C3OC(c4ccsc4)OC32)C1O (centres unmarked)
result: ≥ 80 mg/kg
//
molecule: COC1C(O)C(C)OC(OC2C(Oc3cccc4c(OC(=O)CC(C)C)c5c(=O)oc6ccc(C)c7c(=O)oc(c34)c5c67)OC(C)C3OC(c4ccccc4)OC32)C1O (centres unmarked)
result: ≥ 80 mg/kg

Reported LD50, molecule COC1C(O)C(C)OC(OC2C(Oc3cccc4c(OC(=O)CCNC(=O)c5ccccc5)c5c(=O)oc6ccc(C)c7c(=O)oc(c34)c5c67)OC(C)C3OC(c4ccccc4)OC32)C1O (centres unmarked) : ____
≥ 60 mg/kg

###

assay: Acute toxicity, intravenous (once), ddY mice; type: in vivo; settings: mouse, in vivo, iv, formulated per Preparation Example
Where a name gives a salt, the structure may show the parent alone.
property.label: LD50

Consider the worked cases shown below.
compound: COC1C(O)C(C)OC(OC2C(Oc3cccc4c(OC(=O)CCC(C)=O)c5c(=O)oc6ccc(C)c7c(=O)oc(c34)c5c67)OC(C)C3OC(C)(C)OC32)C1O (stereo not drawn)
result: ≥ 80 mg/kg
--
compound: COC1C(O)C(C)OC(OC2C(Oc3cccc4c(OC(=O)CCN)c5c(=O)oc6ccc(C)c7c(=O)oc(c34)c5c67)OC(C)C3OC(C)(C)OC32)C1O (stereo not drawn) [compound 42, hydrochloride]
result: ≥ 100 mg/kg

Next compound, LD50 to be filled in.
Reported LD50, compound COC1C(O)C(C)OC(OC2C(Oc3cccc4c(OC(=O)CCNC=O)c5c(=O)oc6ccc(C)c7c(=O)oc(c34)c5c67)OC(C)C3OC(c4ccc(F)cc4)OC32)C1O (stereo not drawn) : ____
≥ 40 mg/kg

###

Catalogue of LD50 values
Assay: Acute toxicity, intravenous (once), ddY mice
Format: in vivo
Conditions: mouse, in vivo, iv, formulated per Preparation Example
Description: In Table 7 are shown acute toxicity values (LD50, mg/kg) in ddY mice in the case of intravenously administering (once) each of the compounds of this invention in the form of preparations shown in the Preparation Examples shown in Table 7.

Consider the worked cases shown below.
compound: COC1C(O)C(C)OC(OC2C(Oc3cccc4c(OC(=O)CCCCNC(=O)C(F)(F)F)c5c(=O)oc6ccc(C)c7c(=O)oc(c34)c5c67)OC(C)C3OC(c4ccccc4)OC32)C1O (stereo not shown)
LD50: ≥ 40 mg/kg
//
compound: COC1C(O)C(C)OC(OC2C(Oc3cccc4c(OC(=O)C(C)CN(C)C)c5c(=O)oc6ccc(C)c7c(=O)oc(c34)c5c67)OC(C)C3OC(c4ccccc4)OC32)C1O (stereo not shown)
LD50: ≥ 40 mg/kg
//
compound: COC1C(O)C(C)OC(OC2C(Oc3cccc4c(OC(=O)CCNC=O)c5c(=O)oc6ccc(C)c7c(=O)oc(c34)c5c67)OC(C)C3OC(C)(C)OC32)C1O (stereo not shown)
LD50: ≥ 120 mg/kg

Reported LD50, compound COC1C(O)C(C)OC(OC2C(Oc3cccc4c(OC(=O)C(C)CNC(=O)CN(C)C)c5c(=O)oc6ccc(C)c7c(=O)oc(c34)c5c67)OC(C)C3OC(c4ccccc4)OC32)C1O (stereo not shown) : ____
≥ 40 mg/kg

Reported LD50, compound COC1C(O)C(C)OC(OC2C(Oc3cccc4c(OC(=O)CCCl)c5c(=O)oc6ccc(C)c7c(=O)oc(c34)c5c67)OC(C)C3OC(C)(C)OC32)C1O (stereo not shown) : ____
≥ 80 mg/kg

Reported LD50, compound COC(=O)c1ccc(C(=O)Oc2c3cccc(O[C@@H]4O[C@H](C)[C@@H]5OC(c6ccco6)O[C@@H]5[C@H]4O[C@H]4O[C@H](C)[C@H](O)[C@H](OC)[C@H]4O)c3c3oc(=O)c4c(C)ccc5oc(=O)c2c3c54)cc1 (stereo partly shown) : ____
≥ 80 mg/kg

Reported LD50, compound COC1C(O)C(C)OC(OC2C(Oc3cccc4c(OC(=O)CCNC=O)c5c(=O)oc6ccc(C)c7c(=O)oc(c34)c5c67)OC(C)C3OC(c4cccc(F)c4)OC32)C1O (stereo not shown) : ____
≥ 80 mg/kg

Reported LD50, compound COC1C(O)C(C)OC(OC2C(Oc3cccc4c(OC(=O)CCCCCCCCCCCNC(C)=O)c5c(=O)oc6ccc(C)c7c(=O)oc(c34)c5c67)OC(C)C3OC(C)(C)OC32)C1O (stereo not shown) : ____
≥ 180 mg/kg

Reported LD50, compound COC1C(O)C(C)OC(OC2C(Oc3cccc4c(OC(=O)CNC(=O)CNC(=O)CNC(=O)OCc5ccccc5)c5c(=O)oc6ccc(C)c7c(=O)oc(c34)c5c67)OC(C)C3OC(c4cccc(F)c4)OC32)C1O (stereo not shown) : ____
≥ 30 mg/kg

Reported LD50, compound CO[C@H]1[C@@H](O)[C@@H](C)O[C@H](O[C@H]2[C@H](Oc3cccc4c(OC(=O)C5CC5C)c5c(=O)oc6ccc(C)c7c(=O)oc(c34)c5c67)O[C@H](C)[C@@H]3OC(c4ccc(Cl)cc4)O[C@@H]32)[C@@H]1O (stereo partly shown) : ____
≥ 80 mg/kg
